target.or.test.system: T1, recombinant hu4-1BB-His (human 4-1BB with a C-terminal polyhistidine tag, R&D Systems) (human, UniProt Q07011 24-186)
T1 construct: Bought; not shown: C-terminal polyhistidine tag
assay.protocol: ELISA, hu4-1BB-His coated, detection anti-NGAL-HRP
Kindly supply the reported EC50 values for the records listed here.
Numbers only, in nM.

multimeric protein SEQ ID NO: 47 (designed binder) QDSTSDLIPAPPLSKVPLQQNFQDNQFHGKWYVVGQAGNIRLREDKDPIKMMATIYELKEDKSYDVTMVKFDDKKCMYDIWTFVPGSQPGEFTLGKIKSFPGHTSSLVRVVSTNYNQHAMVFFKFVFQNREEFYITLYGRTKELTSELKENFIRFSKSLGLPENHIVFPVPIDQCIDGGGGGSGGGGSGGGGSKPLDGEYFTLQIRGRERFEMFRELNEALELKDAQAGKEPGGSGGAPEQKLISEEDLGSHHHHHHHHHH: 0.1

Please go through the list and note EC50 for each binder.
1. multimeric protein SEQ ID NO: 38 (designed binder, Trivalent; Self-assembled from its monomer polypeptides) QDSTSDLIPAPPLSKVPLQQNFQDNQFHGKWYVVGQAGNIRLREDKDPIKMMATIYELKEDKSYDVTMVKFDDKKCMYDIWTFVPGSQPGEFTLGKIKSFPGHTSSLVRVVSTNYNQHAMVFFKFVFQNREEFYITLYGRTKELTSELKENFIRFSKSLGLPENHIVFPVPIDQCIDGGGGGSGGGGSGGGGSGVRLWATRQAMLGQVHEVPEGWLIFVAEQEELYVRVQNGFRKVQLEARTPLGGSGGAPEQKLISEEDLGSHHHHHHHHHH
2. multimeric protein SEQ ID NO: 41 (designed binder) QDSTSDLIPAPPLSKVPLQQNFQDNQFHGKWYVVGQAGNIRLREDKDPIKMMATIYELKEDKSYDVTMVKFDDKKCMYDIWTFVPGSQPGEFTLGKIKSFPGHTSSLVRVVSTNYNQHAMVFFKFVFQNREEFYITLYGRTKELTSELKENFIRFSKSLGLPENHIVFPVPIDQCIDGGSPTPTPTTPTPTPTGVRLWATRQAMLGQVHEVPEGWLIFVAEQEELYVRVQNGFRKVQLEARTPLGGSGGAPEQKLISEEDLGSHHHHHHHHHH
3. multimeric protein SEQ ID NO: 42 (designed binder) QDSTSDLIPAPPLSKVPLQQNFQDNQFHGKWYVVGQAGNIRLREDKDPIKMMATIYELKEDKSYDVTMVKFDDKKCMYDIWTFVPGSQPGEFTLGKIKSFPGHTSSLVRVVSTNYNQHAMVFFKFVFQNREEFYITLYGRTKELTSELKENFIRFSKSLGLPENHIVFPVPIDQCIDGAEAAAKEAAAKEAAAKAGVRLWATRQAMLGQVHEVPEGWLIFVAEQEELYVRVQNGFRKVQLEARTPLGGSGGAPEQKLISEEDLGSHHHHHHHHHH

Data returned:
[0.16, 0.19, 0.26]

Please go through the list and note EC50 for each binder.
1. multimeric protein SEQ ID NO: 44 (designed binder) GVRLWATRQAMLGQVHEVPEGWLIFVAEQEELYVRVQNGFRKVQLEARTPLGGGGSQDSTSDLIPAPPLSKVPLQQNFQDNQFHGKWYVVGQAGNIRLREDKDPIKMMATIYELKEDKSYDVTMVKFDDKKCMYDIWTFVPGSQPGEFTLGKIKSFPGHTSSLVRVVSTNYNQHAMVFFKFVFQNREEFYITLYGRTKELTSELKENFIRFSKSLGLPENHIVFPVPIDQCIDGGGSGGAPEQKLISEEDLGSHHHHHHHHHH
2. 4-1BB-specific lipocalin mutein SEQ ID NO: 64 (designed binder, Monomeric hNGAL mutein; also called 4-1BB-targeting lipocalin mutein as included in the multimeric proteins) QDSTSDLIPAPPLSKVPLQQNFQDNQFHGKWYVVGQAGNIRLREDKDPIKMMATIYELKEDKSYDVTMVKFDDKKCMYDIWTFVPGSQPGEFTLGKIKSFPGHTSSLVRVVSTNYNQHAMVFFKFVFQNREEFYITLYGRTKELTSELKENFIRFSKSLGLPENHIVFPVPIDQCIDG
3. multimeric protein SEQ ID NO: 43 (designed binder) GVRLWATRQAMLGQVHEVPEGWLIFVAEQEELYVRVQNGFRKVQLEARTPLGGGGSGGGGSGGGGSQDSTSDLIPAPPLSKVPLQQNFQDNQFHGKWYVVGQAGNIRLREDKDPIKMMATIYELKEDKSYDVTMVKFDDKKCMYDIWTFVPGSQPGEFTLGKIKSFPGHTSSLVRVVSTNYNQHAMVFFKFVFQNREEFYITLYGRTKELTSELKENFIRFSKSLGLPENHIVFPVPIDQCIDGGGSGGAPEQKLISEEDLGSHHHHHHHHHH

Data returned:
[0.22, 0.41, 0.16]

Please go through the list and note EC50 for each binder.
1. multimeric protein SEQ ID NO: 40 (designed binder) QDSTSDLIPAPPLSKVPLQQNFQDNQFHGKWYVVGQAGNIRLREDKDPIKMMATIYELKEDKSYDVTMVKFDDKKCMYDIWTFVPGSQPGEFTLGKIKSFPGHTSSLVRVVSTNYNQHAMVFFKFVFQNREEFYITLYGRTKELTSELKENFIRFSKSLGLPENHIVFPVPIDQCIDGGGGGSGGGGSGGGGSGGGGSGGGGSGVRLWATRQAMLGQVHEVPEGWLIFVAEQEELYVRVQNGFRKVQLEARTPLGGSGGAPEQKLISEEDLGSHHHHHHHHHH
2. multimeric protein SEQ ID NO: 39 (designed binder) QDSTSDLIPAPPLSKVPLQQNFQDNQFHGKWYVVGQAGNIRLREDKDPIKMMATIYELKEDKSYDVTMVKFDDKKCMYDIWTFVPGSQPGEFTLGKIKSFPGHTSSLVRVVSTNYNQHAMVFFKFVFQNREEFYITLYGRTKELTSELKENFIRFSKSLGLPENHIVFPVPIDQCIDGGGGGSGVRLWATRQAMLGQVHEVPEGWLIFVAEQEELYVRVQNGFRKVQLEARTPLGGSGGAPEQKLISEEDLGSHHHHHHHHHH

Data returned:
[0.18, 0.24]
